- target.of.assay: Neuronal acetylcholine receptor; alpha4/beta2 (Rattus norvegicus, UniProt P09483+P12390)
- Sequence (P12390 whole entry, one chain of several): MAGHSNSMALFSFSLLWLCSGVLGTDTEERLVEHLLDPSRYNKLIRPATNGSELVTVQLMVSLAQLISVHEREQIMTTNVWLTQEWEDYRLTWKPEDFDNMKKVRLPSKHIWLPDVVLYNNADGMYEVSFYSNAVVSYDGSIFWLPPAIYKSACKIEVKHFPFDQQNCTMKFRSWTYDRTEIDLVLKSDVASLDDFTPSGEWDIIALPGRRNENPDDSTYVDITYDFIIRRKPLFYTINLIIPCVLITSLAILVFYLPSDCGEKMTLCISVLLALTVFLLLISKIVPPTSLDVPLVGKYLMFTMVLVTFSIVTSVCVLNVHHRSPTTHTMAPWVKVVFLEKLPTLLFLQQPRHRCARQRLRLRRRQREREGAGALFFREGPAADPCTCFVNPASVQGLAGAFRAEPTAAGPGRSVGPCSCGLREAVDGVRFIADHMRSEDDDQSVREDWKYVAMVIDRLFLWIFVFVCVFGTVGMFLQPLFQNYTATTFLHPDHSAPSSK
- method.summary: Displacement of [3H]epibatidine from rat alpha4beta2 nAChR expressed in HEK293 cells after 4 hrs by scintillation counting assay
- Assay type: cell-based
quantity.kind: Ki (µM)
One number for each entry, in µM.

Q: What does the record list as Ki for CNC(=O)OCCC(CCC(O)c1ccccc1)N(C)C (stereo not drawn) ?
A: 100

Q: Endpoint output: Ki of c1ccc(CCN2CCCN(c3cccnc3)CC2)cc1 . Value?
A: 0.11

Q: Bench note: what Ki did c1ccc(CCCN2CCCN(c3cccnc3)CC2)cc1 show?
A: 0.082

Q: Look up Ki for this compound: CNC(=O)OCCC(C)N(C)CCCc1ccccc1 (stereo not drawn)
A: 50

Q: Item under review: CNC(=O)OCCC(C)N(C)CCc1ccccc1 (stereo not drawn) . Reported Ki?
A: 30

Q: Quick one: Ki for Brc1cccc(CCN2CCCN(c3cccnc3)CC2)c1 ?
A: 0.13

Q: Ki lookup needed for CNC(=O)OCCC(CCCCc1ccccc1)N(C)C (stereo not drawn) , thanks.
A: 3.6

Q: // Ki lookup, key: CN(C)C(=O)OCCC(CCC(O)c1ccccc1)N(C)C (stereo not drawn)
A: 30

Q: Name the recorded Ki for CN(C)C(=O)OCCC(COc1ccccn1)N(C)C (stereo not drawn) .
A: 100

Q: Recorded Ki of Brc1ccc(N2CCCN(CCCc3ccccc3)CC2)cn1 , please.
A: 0.82

Count: 3. Required value per item: Ki.
1. c1ccc(CCN2CCN(c3cccnc3)CC2)cc1
2. CNC(=O)OCCC(CCCCCc1ccccc1)N(C)C (stereo not drawn)
3. CNC(=O)OCCC(C)N(C)Cc1ccccc1 (stereo not drawn)

A:
1: 0.56; 2: 2.7; 3: 300

====

- target.of.assay: Neuronal acetylcholine receptor; alpha3/beta4 (Rattus norvegicus, UniProt P04757+P12392)
- Sequence (P04757 whole entry, one chain of several): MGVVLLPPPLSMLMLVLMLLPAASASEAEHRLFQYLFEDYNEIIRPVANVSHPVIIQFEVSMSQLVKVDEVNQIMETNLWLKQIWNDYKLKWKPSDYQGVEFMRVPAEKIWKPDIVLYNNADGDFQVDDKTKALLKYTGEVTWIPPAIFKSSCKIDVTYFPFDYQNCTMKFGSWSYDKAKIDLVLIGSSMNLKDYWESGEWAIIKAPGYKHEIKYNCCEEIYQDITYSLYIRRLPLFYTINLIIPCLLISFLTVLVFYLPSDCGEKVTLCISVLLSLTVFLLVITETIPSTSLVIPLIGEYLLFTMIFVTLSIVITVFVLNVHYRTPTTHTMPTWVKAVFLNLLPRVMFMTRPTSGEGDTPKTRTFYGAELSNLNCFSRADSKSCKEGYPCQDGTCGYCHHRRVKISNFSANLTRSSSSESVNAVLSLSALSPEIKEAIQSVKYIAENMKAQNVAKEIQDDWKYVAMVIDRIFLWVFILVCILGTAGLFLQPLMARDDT
- method.summary: Displacement of [3H]epibatidine from rat alpha3beta4 nACHR expressed in HEK293 cells after 4 hrs by scintillation counting assay
- Assay type: cell-based
- test.conditions: read-out: Ki
quantity.kind: log10(Ki) (log10 of the value in µM)
Scale: log10; quantity: Ki; unit before log: µM

Q: What value of log10(Ki) has been recorded for this entry: CN(C)C(=O)OCCC(CCCCc1ccccc1)N(C)C (stereo not given)
A: 1.04

Q: Quick check: log10(Ki) of Brc1cccc(CCN2CCCN(c3cccnc3)CC2)c1 ?
A: -0.11

Q: Field request: log10(Ki) | item: C(=C\N1CCCN(c2cccnc2)CC1)/c1ccccc1
A: 0.46

Q: Given c1ccc(CCCN2CCN(c3cccnc3)CC2)cc1 , state its recorded log10(Ki).
A: 1.30

Q: Can you look up the measured log10(Ki) of c1ccc(CCCN2CCCN(c3cccnc3)CC2)cc1 for me?
A: 0.58

Q: Which measured log10(Ki) value corresponds to Brc1ccc(N2CCCN(CCCc3ccccc3)CC2)cn1 ?
A: 0.34

Q: Report log10(Ki) for CN(C)C(=O)OCCC(COc1ccc(F)cc1)N(C)C (stereo not given) please.
A: 2.48

Q: Entry CN(C)C(=O)OCCC(CCCc1ccccc1)N(C)C (stereo not given) : reported log10(Ki) = ?
A: 1.11

Q: So what does the record say about log10(Ki) for CNC(=O)OCCC(CCCCCc1ccccc1)N(C)C (stereo not given) ?
A: 1.70

Q: Given the molecule CNC(=O)OCCC(CCCc1ccccc1)N(C)C (stereo not given) , what is its reported log10(Ki)?
A: 2.00

Provide the reported log10(Ki) of each entry below, same order.
1. c1ccc(CCN2CCN(c3cccnc3)CC2)cc1
2. CNC(=O)OCCC(C)N(C)CC(O)c1ccccc1 (stereo not given)
3. CN(C)C(=O)OCCC(CCC(O)c1ccccc1)N(C)C (stereo not given)
4. CN(C)C(CCCCc1ccccc1)CCOc1nccn1C (stereo not given)
5. c1ccc(CCN2CCCN(c3cccnc3)CC2)cc1
6. CNC(=O)OCCC(CCCCc1ccccc1)N(C)C (stereo not given)
7. c1ccc(CN2CCCN(c3cccnc3)CC2)cc1
8. CN(C)C(=O)OCCC(COc1ccccn1)N(C)C (stereo not given)

A:
0.91
3.00
0.77
0.92
0.53
2.00
0.41
2.48

For every item below, please supply its log10(Ki).
1. CNC(=O)OCCC(C)N(C)Cc1ccccc1 (stereo not given)
2. CNC(=O)OCCC(C)N(C)CCc1ccccc1 (stereo not given)

A:
1: 2.48; 2: 2.48

====

I'd appreciate it if you could supply Kd values for the items below.
- method.summary: Binding affinity to Aplysia californica AChBP after 300 seconds by SPR biosensor analysis

Worked set:
Q: Please look up its Kd: c1ccc(CCCN2CCCN(c3cccnc3)CC2)cc1
A: > 1 µM

Q: If you can, please state the reported Kd value of c1ccc(CN2CCCN(c3cccnc3)CC2)cc1 .
A: > 1 µM

Proceeding to the next compound to report its Kd.
Q: Reported Kd, compound CN1[C@@H](CC(=O)c2ccccc2)CCC[C@H]1C[C@H](O)c1ccccc1 : ____
A: 0.013 µM

====

- target.of.assay: Neuronal acetylcholine receptor; alpha4/beta2 (Rattus norvegicus, UniProt P09483+P12390)
- method.summary: Agonist activity at rat (alpha4)2(beta2)3 nAChR expressed in Xenopus oocyte by two electrode voltage-clamp electrophysiology assay
quantity.kind: pEC50
Give bare numbers, as −log10 of the molar value.

Q: What value of pEC50 has been recorded for this entry: c1ccc(CN2CCCN(c3cccnc3)CC2)cc1
A: 5.74

====

- target.of.assay: Neuronal acetylcholine receptor; alpha4/beta2 (Rattus norvegicus, UniProt P09483+P12390)
- method.summary: Displacement of [3H]epibatidine from rat alpha4beta2 nAChR expressed in HEK293 cells after 4 hrs by scintillation counting assay
- Assay type: cell-based
pKi: −log10 of the molar value.
Label YES when pKi >= 5; otherwise NO.

Previously resolved entries follow.
Q: Is reported pKi greater than or equal to 5 here: c1ccc(CCCN2CCN(c3cccnc3)CC2)cc1
A: YES

Q: Item CNC(=O)OCCC(C)N(C)CC(O)c1ccccc1 (configuration not stated) with pKi of 5 or above?
A: NO

Q: Determine whether measured pKi meets or exceeds 5 for CC(CCOC(=O)N(C)C)N(C)CCCc1ccccc1 (configuration not stated)
A: NO

Q: Identify whether the reported pKi of the following molecule is 5 or greater: CC(CCOC(=O)N(C)C)N(C)CC(O)Cc1ccccc1 (configuration not stated)
A: NO

Q: Answer whether pKi of C(=C\N1CCCN(c2cccnc2)CC1)/c1ccccc1 is greater than or equal to 5.
A: YES

Q: pKi >= 5 for CN(C)C(=O)OCCC(CCCCc1ccccc1)N(C)C (configuration not stated) ?
A: YES

Q: Does the reported pKi for CN(C)C(=O)OCCC(CCCc1ccccc1)N(C)C (configuration not stated) fall at or above the 5 mark?
A: YES

Q: Check the entry c1ccc(CN2CCCN(c3cccnc3)CC2)cc1 : does pKi equal or exceed 5?
A: YES

Next:
Q: Identify whether the reported pKi of the following molecule is 5 or greater: CN(C)C(=O)OCCC(COc1ccc(F)cc1)N(C)C (configuration not stated)
A: NO

Q: Could you please find out whether CN(C)C(CCCCc1ccccc1)CCOc1nccn1C (configuration not stated) has pKi that meets 5 or exceeds it?
A: YES

====

- target.of.assay: Neuronal acetylcholine receptor; alpha4/beta4 (Rattus norvegicus, UniProt P09483+P12392)
- Sequence (P09483 whole entry): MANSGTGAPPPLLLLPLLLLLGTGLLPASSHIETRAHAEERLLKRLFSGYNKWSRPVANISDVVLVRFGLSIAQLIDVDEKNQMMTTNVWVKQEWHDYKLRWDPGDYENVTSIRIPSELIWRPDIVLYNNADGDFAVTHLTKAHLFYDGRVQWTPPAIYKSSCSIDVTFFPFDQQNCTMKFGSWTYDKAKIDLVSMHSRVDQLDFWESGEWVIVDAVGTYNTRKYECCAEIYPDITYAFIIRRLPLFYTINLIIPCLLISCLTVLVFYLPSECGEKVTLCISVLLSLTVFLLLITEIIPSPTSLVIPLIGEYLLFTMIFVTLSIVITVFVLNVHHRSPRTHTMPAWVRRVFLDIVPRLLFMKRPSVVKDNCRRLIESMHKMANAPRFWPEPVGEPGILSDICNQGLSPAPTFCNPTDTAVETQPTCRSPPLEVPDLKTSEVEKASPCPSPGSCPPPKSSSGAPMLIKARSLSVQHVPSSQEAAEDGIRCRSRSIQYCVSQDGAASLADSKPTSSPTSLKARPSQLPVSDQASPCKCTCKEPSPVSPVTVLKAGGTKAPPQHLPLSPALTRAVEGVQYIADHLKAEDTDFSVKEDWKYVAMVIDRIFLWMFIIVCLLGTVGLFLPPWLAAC
- Sequence (P12392 whole entry): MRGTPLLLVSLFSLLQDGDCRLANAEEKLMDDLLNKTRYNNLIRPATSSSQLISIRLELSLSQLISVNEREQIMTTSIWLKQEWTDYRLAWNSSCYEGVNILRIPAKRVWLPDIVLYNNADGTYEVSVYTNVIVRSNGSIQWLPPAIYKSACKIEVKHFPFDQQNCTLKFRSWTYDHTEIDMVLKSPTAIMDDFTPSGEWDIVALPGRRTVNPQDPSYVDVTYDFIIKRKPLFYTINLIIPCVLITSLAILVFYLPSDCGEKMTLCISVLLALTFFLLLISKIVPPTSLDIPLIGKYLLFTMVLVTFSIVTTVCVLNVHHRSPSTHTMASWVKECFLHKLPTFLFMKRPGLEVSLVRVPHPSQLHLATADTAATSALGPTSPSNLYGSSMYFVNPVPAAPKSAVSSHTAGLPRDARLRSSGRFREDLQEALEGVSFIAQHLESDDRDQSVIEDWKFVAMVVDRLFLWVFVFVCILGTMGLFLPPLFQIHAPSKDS
- method.summary: Displacement of [3H]epibatidine from rat alpha4beta4 nACHR expressed in HEK293 cells after 4 hrs by scintillation counting assay
- Format: cell-based
quantity.kind: log10(Ki) (log10 of the value in µM)
Hi team, quick reminder: these entries are log10 of Ki (µM).

Below, each entry is followed by its recorded log10(Ki) result.
Q: Looking for the measured log10(Ki) of c1ccc(CN2CCN(c3cccnc3)CC2)cc1 , can you help?
A: 2.00

Q: So what does the record say about log10(Ki) for CN(C)C(=O)OCCC(CCCCc1ccccc1)N(C)C (configuration not stated) ?
A: 0.64

Q: Please look up its log10(Ki): CN(C)C(=O)OCCC(COc1ccccn1)N(C)C (configuration not stated)
A: 2.48

Q: Give its log10(Ki) value. Item: CC(CCOC(=O)N(C)C)N(C)CC(O)Cc1ccccc1 (configuration not stated)
A: 2.00

Would you mind listing log10(Ki) for each of the following compounds?
1. c1ccc(CCCN2CCCN(c3cccnc3)CC2)cc1
2. CN(C)C(=O)OCCC(CCCc1ccccc1)N(C)C (configuration not stated)
3. C(=C\N1CCCN(c2cccnc2)CC1)/c1ccccc1
4. CNC(=O)OCCC(CCC(O)c1ccccc1)N(C)C (configuration not stated)
5. c1ccc(CCCN2CCN(c3cccnc3)CC2)cc1
6. Brc1cccc(CCN2CCCN(c3cccnc3)CC2)c1
7. c1ccc(CCN2CCCN(c3cccnc3)CC2)cc1
8. CNC(=O)OCCC(CCCCc1ccccc1)N(C)C (configuration not stated)

A:
[0.58, 0.69, 0.20, 2.00, 0.54, 0.28, 0.38, 1.48]
